Listed here: items and their measured IC50.
Biological target: Sodium/glucose cotransporter 2 (Homo sapiens, UniProt P31639)
Sequence (P31639 whole entry): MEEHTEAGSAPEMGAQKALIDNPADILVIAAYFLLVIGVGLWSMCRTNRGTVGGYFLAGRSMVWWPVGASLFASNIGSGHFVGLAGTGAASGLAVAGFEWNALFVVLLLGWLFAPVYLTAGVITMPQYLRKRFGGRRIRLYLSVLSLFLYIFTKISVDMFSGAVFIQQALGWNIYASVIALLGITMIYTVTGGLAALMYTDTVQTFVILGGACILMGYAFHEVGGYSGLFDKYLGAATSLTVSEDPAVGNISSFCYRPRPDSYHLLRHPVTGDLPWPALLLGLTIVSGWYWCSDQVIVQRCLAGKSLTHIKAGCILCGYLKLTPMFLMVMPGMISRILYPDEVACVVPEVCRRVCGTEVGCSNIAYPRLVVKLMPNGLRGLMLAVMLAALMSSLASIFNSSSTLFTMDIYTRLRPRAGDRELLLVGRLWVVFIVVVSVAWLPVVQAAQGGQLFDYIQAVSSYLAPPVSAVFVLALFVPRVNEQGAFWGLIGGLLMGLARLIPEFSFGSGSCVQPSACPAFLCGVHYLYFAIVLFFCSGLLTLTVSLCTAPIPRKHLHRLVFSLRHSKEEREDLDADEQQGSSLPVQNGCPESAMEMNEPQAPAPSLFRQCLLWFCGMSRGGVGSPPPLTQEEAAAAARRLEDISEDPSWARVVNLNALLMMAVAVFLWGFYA
Test: Inhibition of human SGLT2 expressed in HEK293 cells assessed as inhibition of [14C]alpha-methylglucopyranoside uptake

- compound: "CCOc1ccc(Cc2cc([C@H]3OC(OC)[C@H](O)[C@@H](O)[C@@H]3O)ccc2Cl)cc1 (some centres undefined)"
  bound-sign: ">"
  IC50 / nM: 30000
- compound: "CCOc1ccc(Cc2cc([C@@H]3OC(OCC)[C@@H](O)[C@H](O)[C@H]3O)ccc2Cl)cc1 (mixture of isomers)"
  bound-sign: "="
  IC50 / nM: 58
- compound: "CCOc1ccc(C(=O)c2cc([C@@H]3OC(OC)[C@@H](O)[C@H](O)[C@H]3O)ccc2Cl)cc1 (single isomer, unassigned)"
  bound-sign: "="
  IC50 / nM: 100
- compound: "COC1O[C@@H](c2ccc(Cl)c(Cc3ccc(OC(=S)N(C)C)cc3)c2)[C@H](O)[C@@H](O)[C@@H]1O (mixture of isomers)"
  bound-sign: "="
  IC50 / nM: 740
- compound: "CCOc1ccc(Cc2cc([C@@H]3OC(OCCO)[C@@H](O)[C@H](O)[C@H]3O)ccc2Cl)cc1 (mixture of isomers)"
  bound-sign: "="
  IC50 / nM: 36
- compound: "CCOc1ccc(Cc2cc([C@@H]3OC(OC)[C@@H](O)[C@H](O)[C@H]3O)ccc2C)cc1 (mixture of isomers)"
  bound-sign: "="
  IC50 / nM: 55
- compound: "CCOc1ccc(Oc2cc([C@@H]3OC(OC)[C@@H](O)[C@H](O)[C@H]3O)ccc2Cl)cc1 (mixture of isomers)"
  bound-sign: "="
  IC50 / nM: 2400
- compound: "COC1O[C@@H](c2ccc(Cl)c(Cc3ccc(Oc4nccs4)cc3)c2)[C@H](O)[C@@H](O)[C@@H]1O (mixture of isomers)"
  bound-sign: "="
  IC50 / nM: 150
- compound: "COc1ccc(Sc2cc([C@@H]3OC(OC)[C@@H](O)[C@H](O)[C@H]3O)ccc2Cl)cc1 (mixture of isomers)"
  bound-sign: "="
  IC50 / nM: 180
- compound: "COCCOc1ccc(Cc2cc([C@@H]3OC(OC)[C@@H](O)[C@H](O)[C@H]3O)ccc2Cl)cc1 (mixture of isomers)"
  bound-sign: "="
  IC50 / nM: 45
- compound: "CCOc1ccc(Cc2cc([C@]3(C)OC(OC)[C@@H](O)[C@H](O)[C@H]3O)ccc2Cl)cc1 (mixture of isomers)"
  bound-sign: "="
  IC50 / nM: 590
- compound: "CCOc1ccc(Cc2cc([C@@H]3OC(OC)[C@H](F)[C@H](O)[C@H]3O)ccc2Cl)cc1 (mixture of isomers)"
  bound-sign: "="
  IC50 / nM: 600
- compound: "CCOc1ccc(Cc2cc([C@@H]3OC(OCCN(C)C)[C@@H](O)[C@H](O)[C@H]3O)ccc2Cl)cc1 (mixture of isomers)"
  bound-sign: "="
  IC50 / nM: 3600
- compound: "CCOc1ccc(Cc2cc([C@@H]3OC(OC)[C@@H](O)[C@H](O)[C@H]3O)ccc2Cl)cc1 (mixture of isomers; 7a)"
  bound-sign: "="
  IC50 / nM: 25

Origin of the recorded values: ChEMBL document CHEMBL1156071
